This collection of values is drawn from PubChem BioAssay.

Experiment: optical density shifts of acrAB sulA E. coli – strain DRC41, OD650, 48 h, E. coli filamentation inducer project, primary screen (AID 1152);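 also: E. coli MC1000 strain DRC41 lacking acrAB efflux pump and sulA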
Details: higher = more signal, called active from +8 up or from −8 down
quantity measured: z-score
When you answer, write just the number.

Lookup: Param item = CN1C(=O)C2C(C1=O)C1C=C(c3ccc(CO)cc3)C2C(C2CC2)N1Cc1sc2ccccc2c1Cl (stereo not drawn) ; retrieve measured z-score.
Found: 0.743

Lookup: I have this molecule here, [N-]=[N+]=NCc1ccccc1C[C@]1(C(N)=O)N=C(c2ccc(OCCCO)cc2)O[C@H]1c1ccccc1N=[N+]=[N-] , and I need its recorded z-score.
Found: 0.125

Lookup: Recorded z-score for COc1cc2c(cc1O)C(c1ccc(CN3CCCC3)cc1)N(Cc1sc3ccccc3c1Cl)CC2 (stereo not drawn) , please?
Found: 0.13

Lookup: # query: z-score of entry C=C(C(=O)CC[C@@H](OC(=O)c1cccnc1)c1ccc(OCCO)cc1)C(C)C
Found: -1.07

Lookup: Quick check: z-score of C=C(COC)/C(=C/C[C@H](OC(C)=O)c1ccccc1OCCO)c1cnc2ccccc2c1 ?
Found: -0.0836

Lookup: Look at this molecule and give its reported z-score. COCCn1c(C(=O)N(C)C)cc2c1C[C@H]1CN(C(=O)c3ccccc3)[C@@](Cc3ccc(F)cc3)(C(=O)OC)[C@@H]21
Found: 0.118

Lookup: I would be grateful if you could share the reported z-score for O=C(NCC(O)CO)[C@@]1(Cc2ccccc2)COC(c2ccc(OCCCO)cc2)=N1 (stereo partly drawn) .
Found: 0.712

Lookup: Give the measured z-score of [N-]=[N+]=NCc1ccccc1[C@@H]1OC(c2ccc(OCCCO)cc2)=N[C@]1(Cc1ccccc1)C(=O)O .
Found: -0.235

* * *

Assay: FRG1 expression reporter modulators in myotubes – cell-based, C2C12 myotubes, firefly/Renilla luciferase, luminescence, FRG1 inhibition for FSHD, primary screen (AID 1084)
Conditions: FRG1 promoter luciferase, higher = more signal, called active from +8 up or from −8 down
quantity measured: z-score
Reply briefly: the number, and no unit.

Lookup: What z-score value was documented for this compound, O=C1NC(=O)C2C1C=CC(C(O)c1cccs1)N2Nc1ccccn1 (stereo not given) ?
Found: 0.304

Lookup: Need z-score, item OCCCc1cc[n+](Cc2cccc(OC(F)(F)F)c2)cc1
Found: 1.7

Lookup: Give the measured z-score of C=CC[C@@]1(C(N)=O)N=C(c2ccc(OCCCO)cc2)O[C@@H]1c1ccccc1N=[N+]=[N-] .
Found: 2.64

Lookup: Entry O=C1OCC=C[C@H]2OC34C=CCN(c5ccc6ccccc6c5)C(=O)[C@H]3N(CCO)C(=O)[C@@H]4[C@@H]12 (stereo not given in full) has what z-score?
Found: 1.18

Lookup: Need z-score, item O=C1C2C=CC(C(O)C3CC=CCC3)N(n3cnnc3)C2C(=O)N1Cc1ccccc1 (stereo not given)
Found: 0.37

Lookup: Request the reported z-score associated with O=P(NCC1(CC2(c3ccccc3)CO2)CC1)(c1ccccc1)c1ccccc1 (stereo not given)
Found: -1.59

Lookup: # get_value(readout='z-score', item= CN(C)CCCN1C(=O)[C@@]2(c3ccc([N+](=O)[O-])cc3)CC(=O)N(C3CCCCC3)[C@@H]2c2ccc(CO)cc21 )
Found: 1.19

Lookup: // z-score lookup, key: O=S(=O)(NCCCO)c1ccc(Br)cc1
Found: -1.91

Lookup: Please give the measured z-score for this compound: C[n+]1ccc2ccc(O)cc2c1
Found: 1.53

Lookup: For COc1ccccc1CN1C(=O)c2ccccc2[C@](Cc2ccccc2I)(C(=O)NC2CC2)[C@@H]1c1ccc(CO)cc1 , what is its reported z-score?
Found: -2.86

* * *

Would you kindly list composite z-score for each of these compounds?
Experiment: probe aDKK1 binding to arrayed compounds – biochemical, biotinylated probe, 635/667 nm fluorescence, primary screen (AID 1099);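 also: score merges 667nm spot fluorescence with signal to noise across triplicate slides; reference of the scale not given here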
Conditions: small-molecule microarray, higher = more signal

Lookup: # get_value(readout='composite z-score', item= CCCNC(=O)[C@@]1(C)c2ccccc2C(=O)N(C(C)C)[C@H]1c1ccc(CO)cc1 )
Found: 0.695

Lookup: Could you tell me which composite z-score is on file for O=C(NCC(O)CO)[C@@]1(Cc2ccccc2)COC(c2ccc(OCCCO)cc2)=N1 (some centres not stated) ?
Found: 0.549

Lookup: Look up composite z-score: COCCOC(=O)N1C(=O)[C@@]2(c3cc(C#CCCO)ccc31)[C@H](c1ccc(O)cc1)N1[C@H](c3ccccc3)[C@H](c3ccccc3)OC(=O)[C@H]1[C@@H]2C(=O)N1CCCCCCC1
Found: 1.51

Lookup: I'd like to know its composite z-score. The compound in question is C=CCN1Cc2ccccc2C[C@@]2(COC(c3ccc(OCCCO)cc3)=N2)C1=O
Found: 1.02

Lookup: So what's the measured composite z-score for this one? COCCOC(=O)N1C(=O)[C@@]2(c3cc(C#CC4(O)CCCCCC4)ccc31)[C@H](c1ccc(O)cc1)N1[C@H](c3ccccc3)[C@H](c3ccccc3)OC(=O)[C@H]1[C@@H]2C(=O)N1CCc2cc(OC)c(OC)cc2C1
Found: -0.226

Lookup: Give the measured composite z-score of CC(C)C[C@@H]1NC(=O)[C@@H]2C[C@H](C(=O)NCCCCN(C)C)[C@H](c3ccc(O)cc3)N2C1=O .
Found: 0.147

Lookup: Reported composite z-score for O=C1c2ccccc2[C@@]2(Cc3ccccc3N(Cc3ccccc3)C2=O)[C@H](c2ccc(CO)cc2)N1Cc1ccccc1C(F)(F)F : what is it?
Found: 0.0463

Lookup: Field request: composite z-score | item: C#C[C@H](O[Si](C#CCCCCCC)(C(C)C)C(C)C)c1ccccc1
Found: -0.109

Lookup: I would be grateful if you could share the reported composite z-score for CO[C@H]1O[C@H](CO)[C@@H](OC(=O)Nc2ccc(C(F)(F)F)cc2)[C@H](OC(=O)Nc2ccccc2)[C@@H]1OC(=O)Nc1ccccc1 .
Found: -0.442

Lookup: I'd like to know its composite z-score. The compound in question is C=CC[C@@]1(C(=O)OC)N=C(c2ccc(OCCCO)cc2)O[C@@H]1c1ccccc1CN=[N+]=[N-]
Found: -0.0877

Lookup: Please look up its composite z-score: [N-]=[N+]=NCc1ccccc1C[C@]1(C(=O)NCc2ccccc2)COC(c2ccc(OCCCO)cc2)=N1
Found: -0.109

Lookup: # query: composite z-score of entry O=C1OCC=C[C@H]2OC34C=CCN(CCN5CCOCC5)C(=O)[C@H]3N(CCCCCCO)C(=O)[C@@H]4[C@@H]12 (some centres not stated)
Found: -0.148

Lookup: Given the compound CCCNC(=O)[C@@]1(c2ccc([N+](=O)[O-])cc2)CC(=O)N(CC23CC4CC(CC(C4)C2)C3)[C@@H]1c1ccc(CO)cc1I , what is its reported composite z-score?
Found: 0.563

Lookup: # lookup: composite z-score of COc1ccc(C#Cc2ccc3c(c2)[C@]2(C(=O)N3)[C@H](C(=O)N3CCN(c4ncccn4)CC3)[C@H]3C(=O)O[C@H](c4ccccc4)[C@H](c4ccccc4)N3[C@@H]2c2ccc(O)cc2)cc1
Found: -0.015

Lookup: Would you kindly share the measured composite z-score for Cc1ccc(N2C(=O)c3ccccc3[C@@H](C(=O)NCC(C)C)[C@@H]2c2ccc(CO)cc2)nc1 ?
Found: -0.244

Lookup: Item COCCOC(=O)N1C(=O)[C@@]2(c3cc(C#Cc4ccc(OC)cc4)ccc31)[C@H](c1ccc(O)cc1)N1[C@H](c3ccccc3)[C@H](c3ccccc3)OC(=O)[C@H]1[C@@H]2C(=O)N1CCN(c2ncccn2)CC1 has what recorded composite z-score?
Found: -0.544

Lookup: Recorded composite z-score for O=C1OCC=C[C@H]2OC34C=CCN(Cc5ccccc5)C(=O)[C@H]3N(CCCO)C(=O)[C@@H]4[C@@H]12 (some centres not stated) , please?
Found: 1.16

Lookup: Give its composite z-score value. Item: CCCCCN1CC=CC23O[C@@H]4C=CCCOC(=O)C4[C@H]2C(=O)N(CCCO)[C@@H]3C1=O (some centres not stated)
Found: -0.117

Lookup: If you can, please state the reported composite z-score value of COc1ccc([Si](C)(C)[C@H]2[C@H](CCO)O[C@@]3(C(=O)N(Cc4ccccc4)c4ccc(N5C(=O)COc6ccccc65)cc43)[C@@H]2C)cc1 .
Found: 0.0649

Lookup: Reported composite z-score, compound CCCCCCC#C[Si](O[C@H](c1ccccc1)c1cn([C@H](C)c2ccccc2)nn1)(C(C)C)C(C)C : ____
Found: -0.167

Lookup: Would you mind telling me what composite z-score value was observed for COc1ccc(C#Cc2ccc3c(c2)[C@]2(C(=O)N3)[C@H](c3ccc(OCCO)cc3)N3[C@H](c4ccccc4)[C@H](c4ccccc4)OC(=O)[C@H]3[C@@H]2C(=O)Nc2nc3ccccc3s2)cc1 ?
Found: 0.771

Lookup: Can you look up the measured composite z-score of COCCOC(=O)N1C(=O)[C@@]2(c3cc(C#Cc4ccc(OC)cc4)ccc31)[C@H](C(N)=O)[C@H]1C(=O)O[C@H](c3ccccc3)[C@H](c3ccccc3)N1[C@@H]2c1ccc(O)cc1 for me?
Found: -0.76

Lookup: I have this compound here, COc1ccc(C(O)C2C=CC3C(=O)N(c4ccccc4)C(=O)C3N2Nc2ccccc2)c2ccccc12 (configuration not stated) , and I need its recorded composite z-score.
Found: 0.927

Lookup: Requested read-out: composite z-score. Entry: CN(C)CCCC[C@@H]1NC(=O)[C@H]2C[C@@H](C(=O)NCCCCCNC(=O)CS)[C@@H](c3ccc(O)cc3)N2C1=O
Found: 0.0417

Lookup: Given COC(=O)[C@@]1(Cc2ccc(F)cc2)[C@H]2c3cc(C(=O)N(C)C)n(CCc4c[nH]c5ccc(OC)cc45)c3C[C@H]2CN1C(=O)c1ccccc1 , state its recorded composite z-score.
Found: 1.76

Lookup: May I ask what composite z-score has been recorded for O=C1O[C@H](c2ccccc2)[C@H](c2ccccc2)N2[C@H]1[C@@H](C(=O)NC[C@H](O)c1ccccc1)[C@]1(C(=O)Nc3ccc(C#CC4=CCCCC4)cc31)[C@H]2c1ccc(O)cc1 ?
Found: 0.137

Lookup: Please report the recorded composite z-score for O=C1C2C=CC(C(O)CCc3ccccc3)N(Nc3ccccc3)C2C(=O)N1c1ccccc1 (configuration not stated) .
Found: 1.18
